Tested on: surinam grass
assay-protocol: Test B pre/postemergence surinam grass
Type: in vivo, Brachiaria decumbens
condition-info: Rate 500 g/ha, Preemergence; scale 0 to 10 (0 no effect, 10 complete control)
Recorded B. signalgrass plant response rating for the following compounds
Enter a number only.

Some solved entries appear below for comparison.
compound	B. signalgrass plant response rating
C#CCn1c(=O)on(C(=O)N(c2ccc(F)cc2)C(C)C)c1=O [Compound 743]	8
C#CC(C)n1c(=O)on(C(=O)N(c2ccc(F)cc2)C(C)C)c1=O (stereo not shown) [Compound 763]	8
CC(C)N(C(=O)n1oc(=O)n(C(C)C(=S)N(C)C)c1=O)c1ccc(F)cc1 (stereo not shown) [Compound 728]	9

Query compound follows.
**Query** Which B. signalgrass plant response rating value belongs to C#CCCn1c(=O)on(C(=O)N(c2ccc(F)cc2F)C(C)C)c1=O [Compound 744] ?
**Result** 9

---

Tested on: cocklebur
assay-protocol: Test B pre/postemergence cocklebur
Format: in vivo, Xanthium strumarium
condition-info: Postemergence, Rate 500 g/ha; scale of 0 to 10 where 0 is no effect and 10 is complete control
Protocol: […] At the same time, these crop and weed species were also treated with postemergence applications of test chemicals formulated in the same manner. […] Treated plants and controls were maintained in a greenhouse for twelve to sixteen days, after which all species were compared to controls and visually evaluated. […]
Recorded Cocklebur plant response rating for the following compounds
Enter a number only.

compound	reported
CC(C)N(C(=O)n1oc(=O)n(C(C)C2CC2)c1=O)c1ccc(F)cc1 (stereo not shown)	3
CC(C)N(C(=O)n1oc(=O)n(CCCl)c1=O)c1ccc(Cl)cc1	4
CC(C)N(C(=O)n1oc(=O)n(C2CCOCC2)c1=O)c1ccccc1	5
CCOC(=O)CC(C(=O)OCC)n1c(=O)on(C(=O)N(c2ccc(F)cc2F)C(C)C)c1=O (stereo not shown)	0
CC(C)N(C(=O)n1oc(=O)n(C2CCCCCC2)c1=O)C1=CCCCC1	1

**Query** I'm curious: which Cocklebur plant response rating was measured for COCC(OC)n1c(=O)on(C(=O)N(c2ccc(F)cc2)C(C)C)c1=O (stereo not shown) tested on cocklebur?
**Result** 0

**Query** Please do the same for C=CC[Si](C)(C)Cn1c(=O)on(C(=O)N(c2ccc(F)cc2)C(C)C)c1=O as well.
**Result** 0

---

Test system: blackgrass
assay-protocol: Test B pre/postemergence blackgrass
Format: in vivo, Alopecurus myosuroides
condition-info: Postemergence, Rate 500 g/ha; scale of 0 to 10 where 0 is no effect and 10 is complete control
measured-metric: Plant response rating, Blackgrass
Enter a number only.

Some solved entries appear below for comparison.
molecule	measured-metric	reported
CC(=O)C(C)n1c(=O)on(C(=O)N(c2ccccc2)C(C)C)c1=O (stereo not shown)	Plant response rating, Blackgrass	7
CCc1nc(C)c(C(C)n2c(=O)on(C(=O)N(c3ccc(Cl)cc3)C(C)C)c2=O)s1 (stereo not shown)	Plant response rating, Blackgrass	0
CC(Cl)=CCn1c(=O)on(C(=O)N(c2ccccc2)C(C)C)c1=O	Plant response rating, Blackgrass	0
CCc1nc(C)c(C(C)n2c(=O)on(C(=O)N(c3ccc(F)cc3F)C(C)C)c2=O)s1 (stereo not shown)	Plant response rating, Blackgrass	3
CC(C)N(C(=O)n1oc(=O)n(CC2CCCCO2)c1=O)c1ccc(F)cc1 (stereo not shown)	Plant response rating, Blackgrass	9

**Query** I'm curious: which Plant response rating, Blackgrass was measured for CCOC(Cn1c(=O)on(C(=O)N(c2ccccc2)C(C)C)c1=O)OCC tested on blackgrass?
**Result** 8

**Query** Please do the same for CC(C)N(C(=O)n1oc(=O)n(CC(=O)C2CCC2)c1=O)c1ccccc1 as well.
**Result** 6

---

Recorded Plant response rating, Green foxtail for the following compounds
Tested on: green foxtail
assay-protocol: Test E green foxtail
Type: in vivo, Setaria viridis
condition-info: Preemergence; Rate 1000 g/ha; 0 to 100 scale where 0 is no effect and 100 is complete control
Enter a number only.

compound	measurement-target	reported
CC(C)N(C(=O)n1oc(=O)n(CC(F)(F)F)c1=O)c1ccc(F)cc1 [Compound 163]	green foxtail	100

Query compound follows.
**Query** Which Plant response rating, Green foxtail value belongs to Cc1cccc(C)c1-n1c(=O)on(C(=O)N(c2ccccc2)C(C)C)c1=O [Compound 46] ?
**Result** 80

---

Test system: velvetleaf
assay-protocol: Test B pre/postemergence velvetleaf
Type: in vivo, Abutilon theophrasti
condition-info: Rate 500 g/ha, Postemergence; scale 0 to 10, 0 no effect, 10 complete control
measured-metric: Velvetleaf plant response rating
Enter a number only.

Some solved entries appear below for comparison.
molecule	Velvetleaf plant response rating
Cc1ccccc1-n1c(=O)on(C(=O)N(c2ccc(N(C)C)cc2)C(C)C)c1=O	2
CCN(CC)C(=O)n1oc(=O)n(-c2cccc3c2CCCC3)c1=O	3
Cc1nn(C)c(C)c1-n1c(=O)on(C(=O)N(c2ccccc2)C(C)C)c1=O	6
CCCCCC#CCn1c(=O)on(C(=O)N(c2ccc(F)cc2)C(C)C)c1=O	2
CC(C)N(C(=O)n1oc(=O)n(CC(=O)OC(C)(C)C)c1=O)c1ccc(F)cc1	3
Cc1ccccc1-n1c(=O)on(C(=O)N(c2ccc(F)cc2)C(C)C2CC2)c1=O (centres unmarked)	3
CC(C)N(C(=O)n1oc(=O)n(CC2(C)COC2)c1=O)c1ccc(F)cc1	0

Query molecule follows.
**Query** Which Velvetleaf plant response rating value belongs to CC(C)N(C(=O)n1oc(=O)n(Cc2cccs2)c1=O)c1ccc(F)cc1 ?
**Result** 0

---

Recorded B. signalgrass plant response rating for the following molecules
Tested on: surinam grass
assay-protocol: Test B pre/postemergence surinam grass
Type: in vivo, Brachiaria decumbens
condition-info: Postemergence, Rate 250 g/ha; scale 0 to 10, 0 no effect, 10 complete control
Enter a number only.

molecule	measured-metric	reported
CC(C)N(C(=O)n1oc(=O)n(C(C)C(=O)N(C)C)c1=O)c1ccc(Cl)cc1 (centres unmarked)	B. signalgrass plant response rating	5
COCC(OC)n1c(=O)on(C(=O)N(c2ccc(F)cc2)C(C)C)c1=O (centres unmarked)	B. signalgrass plant response rating	6
CCN(CC)C(=O)n1oc(=O)n(-c2ccc(OC)cc2)c1=O	B. signalgrass plant response rating	7
CCN(C(=O)n1oc(=O)n(-c2c(C)cc(C)cc2C)c1=O)C1CCCCC1	B. signalgrass plant response rating	0
Cc1ccccc1-n1c(=O)on(C(=O)N(c2ccc(Cl)cc2)C(C)C)c1=O	B. signalgrass plant response rating	0

**Query** Which B. signalgrass plant response rating value belongs to CC(C)N(C(=O)n1oc(=O)n(CCC[Si](C)(C)C)c1=O)c1ccc(F)cc1 ?
**Result** 0

**Query** Please do the same for Cc1nn(C)c(C)c1-n1c(=O)on(C(=O)N(c2ccc(F)cc2)C(C)C)c1=O as well.
**Result** 6

**Query** Please do the same for CC(C)N(C(=O)n1oc(=O)n(C2CCCCC2C(F)(F)F)c1=O)c1ccc(F)cc1 (centres unmarked) as well.
**Result** 0

---

Test system: morningglory
assay-protocol: Test B pre/postemergence morningglory
Type: in vivo, Ipomoea hederacea
condition-info: Preemergence, Rate 125 g/ha; scale of 0 to 10 where 0 is no effect and 10 is complete control
measured-metric: Plant response rating, Morningglory
Enter a number only.

Some solved entries appear below for comparison.
compound	Plant response rating, Morningglory
Cc1nc(C(C)n2c(=O)on(C(=O)N(c3ccccc3)C(C)C)c2=O)sc1C (stereo not shown)	0
CC(C)N(C(=O)n1oc(=O)n(C(C)C(=O)N(C)C)c1=O)c1ccc(Cl)cc1 (stereo not shown)	0
CC(C)N(C(=O)n1oc(=O)n(CC2=NOCCC2)c1=O)c1ccc(Cl)cc1	0

Query compound follows.
**Query** Which Plant response rating, Morningglory value belongs to CC(C)N(C(=O)n1oc(=O)n(C2CCOCC2)c1=O)c1ccccc1 ?
**Result** 4

---

Test system: blackgrass
assay-protocol: Test B pre/postemergence blackgrass
Type: in vivo, Alopecurus myosuroides
condition-info: Preemergence, Rate 125 g/ha; 0 is no effect, 10 is complete control
measured-metric: Blackgrass plant response rating (0 to 10 scale)
Enter a number only.

Some solved entries appear below for comparison.
compound	measurement-target	reported
CC(C)Cn1c(=O)on(C(=O)N(c2ccc(F)cc2)C(C)C)c1=O [Compound 169]	blackgrass	3
Cc1ccccc1-n1c(=O)on(C(=O)N(c2ccc(Cl)cc2F)C(C)C)c1=O [Compound 195]	blackgrass	1
C=CCn1c(=O)on(C(=O)N(c2ccc(F)cc2)C2CCC2)c1=O [Compound 194]	blackgrass	2

Query compound follows.
**Query** Which Blackgrass plant response rating (0 to 10 scale) value belongs to COc1nc(OC)nc(N(C(=O)n2oc(=O)n(C(C)C)c2=O)C(C)C)n1 [Compound 182] ?
**Result** 0

---

Recorded Ducksalad plant response rating for the following compounds
Test system: duck salad
assay-protocol: Test B flood test duck salad
Assay type: in vivo, Heteranthera limosa
condition-info: Rate 62 g/ha, headed Pre-emergence (flood test species); scale 0 to 10 (0 no effect, 10 complete control)
Enter a number only.

Some solved entries appear below for comparison.
compound	Ducksalad plant response rating
Cc1ccccc1-n1c(=O)on(C(=O)N(c2ccc(Cl)cc2F)C(C)C)c1=O	0
CC(C)N(C(=O)n1oc(=O)n(CC2CC2)c1=O)c1ccc(F)cc1	0
C=C(Cn1c(=O)on(C(=O)N(c2ccc(F)cc2)C(C)C)c1=O)C[Si](C)(C)C	0
CCCCCC#CCn1c(=O)on(C(=O)N(c2ccc(F)cc2)C(C)C)c1=O	0
Cc1ccccc1-n1c(=O)on(C(=O)N(c2ccc(N(C)C)cc2)C(C)C)c1=O	0

Query compound follows.
**Query** Which Ducksalad plant response rating value belongs to Cc1nc(C)c(Cn2c(=O)on(C(=O)N(c3ccc(Cl)cc3)C(C)C)c2=O)s1 ?
**Result** 0

Ref: patent US6737383B1
